test system: RARg homodimer (NR concentration 270 nM); assay: PBM binding z-score (relative to random genomic background probes); higher = stronger binding; sequences stand for … in GC…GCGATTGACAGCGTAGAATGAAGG
quantity: PBM binding z-score

INSERT INTO results (item_sequence, result_number) VALUES
  ('CGAACTAGGTCAGATCAGGACAGTGAAGGATGAT', 4.03),
  ('CCGAGAAGGTTATGGGGCATTCAGGCAACGGTGA', 1.38),
  ('GCTATTAGTTGGAAGGGCAACCGAATGATTCTCG', 0.522),
  ('ACTAGCAGGCCAAGTTTGGGTCACTCAGACAAAG', 1.41),
  ('CCTAGCAGGCCAATCTGGGTGACTCAAGGCTTGA', -0.326),
  ('AGAATCAGGTTATACGTAGATCAGGGAAGAAAGT', 0.919),
  ('ATCGAAAGGTCGCGAGGTGAGTATACAGAAAGGC', 4.94),
  ('AGCTCTAGGTAACAAGTTCAGTGAAAGAGAGGAC', 1.23),
  ('GGAACGAGGGCAATTTGATAGCAGAGTTTGATGG', 1.25),
  ('GGAACGAGGGCACTCGAGTTGATAGCATGGCGAT', 1.45),
  ('CGTCCAAGGTCAAAGGTCAGTGACGAGATGACGG', 8.22),
  ('TCAAGTAGGTTACCAATGGGGCATTCAGCTTTCT', 0.77);
